Source listed as DBAASP.

- System: Staphylococcus epidermidis KCTC 1917
Provide the recorded MIC for the entries that follow.
One number for each entry, in µM.

Some compounds with recorded MIC:
NC(N)=NCCC[C@H](NC(=O)[C@H](CCCN=C(N)N)NC(=O)[C@H](Cc1ccccc1)NC(=O)[C@@H]1CCCN1C(=O)[C@H](Cc1c[nH]c2ccccc12)NC(=O)[C@H](Cc1c[nH]c2ccccc12)NC(=O)[C@H](Cc1c[nH]c2ccccc12)NC(=O)[C@@H]1CCCN1C(=O)[C@H](Cc1ccccc1)NC(=O)[C@H](CCCN=C(N)N)NC(=O)[C@@H](N)CCCN=C(N)N)C(=O)O : 1.18
CC(C)C[C@H](NC(=O)[C@H](Cc1ccccc1)NC(=O)[C@H](CCCN=C(N)N)NC(=O)[C@H](CCCCN)NC(=O)[C@H](Cc1c[nH]c2ccccc12)NC(=O)[C@H](CCCN=C(N)N)NC(=O)[C@H](CCC(N)=O)NC(=O)[C@@H](NC(=O)[C@H](Cc1c[nH]c2ccccc12)NC(=O)[C@H](CCCN=C(N)N)NC(=O)[C@H](CCCCN)NC(=O)[C@@H](N)Cc1ccccc1)C(C)C)C(=O)N[C@@H](CCCN=C(N)N)C(N)=O : 4
CC[C@H](C)[C@H](NC(=O)[C@H](CCCCN)NC(=O)[C@H](CO)NC(=O)[C@H](Cc1ccccc1)NC(=O)[C@H](CC(C)C)NC(=O)[C@H](CCCCN)NC(=O)[C@H](CCC(=O)O)NC(=O)[C@H](CC(C)C)NC(=O)[C@H](CCCN=C(N)N)NC(=O)[C@H](CCCCN)NC(=O)[C@H](Cc1ccccc1)NC(=O)[C@@H](NC(=O)[C@@H](N)CCCCN)C(C)C)C(N)=O : 6.25

Query compound follows.
Recorded MIC of CC[C@H](C)[C@H](NC(=O)[C@H](C)NC(=O)[C@H](CC(C)C)NC(=O)[C@H](Cc1c[nH]c2ccccc12)NC(=O)[C@H](CC(C)C)NC(=O)[C@@H](N)CCCN=C(N)N)C(=O)NCC(=O)N[C@@H](CCCN=C(N)N)C(=O)NCC(N)=O , please.
4

---

MIC values recorded for Salmonella typhimurium KCTC 1926
Answers are plain numbers, in µM.

CC(C)C[C@H](NC(=O)[C@H](Cc1ccccc1)NC(=O)CNC(=O)[C@H](Cc1c[nH]c2ccccc12)NC(=O)[C@H](Cc1c[nH]c2ccccc12)NC(=O)[C@H](Cc1c[nH]c2ccccc12)NC(=O)CNC(=O)[C@H](Cc1ccccc1)NC(=O)[C@H](CCCN=C(N)N)NC(=O)[C@H](CCCN=C(N)N)NC(=O)[C@@H](N)C(C)C)C(=O)N[C@@H](CCCN=C(N)N)C(=O)N[C@@H](CCCN=C(N)N)C(=O)O [VRRFGWWWGFLRR] : 17.6
NCCCC[C@H](NC(=O)CNC(=O)[C@H](Cc1c[nH]c2ccccc12)NC(=O)[C@H](CCCCN)NC(=O)[C@H](CCCCN)NC(=O)CNC(=O)[C@H](Cc1c[nH]c2ccccc12)NC(=O)[C@H](CCCCN)NC(=O)[C@H](CCCCN)NC(=O)CNC(=O)[C@H](Cc1c[nH]c2ccccc12)NC(=O)[C@@H](N)CCCCN)C(N)=O [KWGKKWGKKWGK] : 16

For each of the items listed, what is its MIC?
1. NC(N)=NCCC[C@H](NC(=O)[C@H](CCCN=C(N)N)NC(=O)[C@H](Cc1ccccc1)NC(=O)[C@@H]1CCCN1C(=O)[C@H](Cc1c[nH]c2ccccc12)NC(=O)[C@H](Cc1c[nH]c2ccccc12)NC(=O)[C@H](Cc1c[nH]c2ccccc12)NC(=O)[C@@H]1CCCN1C(=O)[C@H](Cc1ccccc1)NC(=O)[C@H](CCCN=C(N)N)NC(=O)[C@@H](N)CCCN=C(N)N)C(=O)O [RRFPWWWPFRR]
2. CC[C@H](C)[C@H](NC(=O)CNC(=O)[C@H](CC(C)C)NC(=O)[C@H](CCCN=C(N)N)NC(=O)[C@H](CCCCN)NC(=O)[C@H](Cc1ccccc1)NC(=O)[C@@H](NC(=O)[C@H](CCCCN)NC(=O)[C@H](CCCCN)NC(=O)[C@H](C)N)C(C)C)C(=O)NCC(=O)N[C@@H](C)C(=O)N[C@H](C(=O)N[C@@H](CC(C)C)C(=O)N[C@@H](Cc1c[nH]c2ccccc12)C(=O)N[C@H](C(=O)N[C@@H](CC(C)C)C(=O)N[C@H](C(=O)N[C@H](C(=O)NCC(=O)O)[C@@H](C)O)[C@@H](C)O)C(C)C)C(C)C [AKKVFKRLGIGAVLWVLTTG]

[4.73, 0.78]

---

- Test system: Escherichia coli D31
- RUN_DESCRIPTION: ≥ marks a high value that may be exact or a test limit, other limits are often not marked, values filed in µg/mL are converted to µM
QUANTITY_MEASURED: MIC (µM)
Give bare numbers, in µM.

CC[C@H](C)[C@H](N)C(=O)N[C@@H](Cc1ccccc1)C(=O)NCC(=O)N[C@@H](C)C(=O)N[C@H](C(=O)N[C@@H](Cc1c[nH]c2ccccc12)C(=O)N[C@@H](CO)C(=O)NCC(=O)N[C@H](C(=O)N[C@@H](CCCCN)C(=O)N[C@@H](CO)C(=O)N[C@@H](CC(C)C)C(=O)N[C@@H](Cc1ccccc1)C(N)=O)[C@@H](C)CC)[C@@H](C)CC : 8

Now look at this entry.
Recorded MIC for CC[C@H](C)[C@H](NC(=O)[C@@H](NC(=O)[C@@H]1CCCN1C(=O)[C@@H](N)C(C)C)[C@@H](C)CC)C(=O)N[C@@H](Cc1ccc(O)cc1)C(=O)N[C@H]1CSSC[C@@H](C(=O)N[C@@H](CCC(N)=O)C(=O)N[C@@H](CCCN=C(N)N)C(=O)N[C@@H](CCSC)C(=O)O)NC(=O)[C@H](CCCCN)NC(=O)CNC(=O)[C@H]([C@@H](C)O)NC(=O)[C@H](CCCN=C(N)N)NC(=O)[C@H](CCCN=C(N)N)NC(=O)[C@H](CC(N)=O)NC1=O with Escherichia coli D31, please?
0.849

---

These compounds were tested on Staphylococcus aureus ATCC 29213; MIC is the recorded read-out.
One number for each entry, in µM.

Study these solved cases before continuing.
CC(C)C[C@H](NC(=O)[C@H](CC(C)C)NC(=O)[C@H](CCCCN)NC(=O)[C@H](CO)NC(=O)[C@H](CC(C)C)NC(=O)[C@H](C)NC(=O)[C@H](Cc1cnc[nH]1)NC(=O)[C@H](Cc1ccccc1)NC(=O)[C@H](CC(C)C)NC(=O)[C@H](C)NC(=O)CNC(=O)[C@H](CC(C)C)NC(=O)[C@@H](N)Cc1ccccc1)C(=O)O : 4
CC(C)C[C@H](NC(=O)[C@H](CCCCN)NC(=O)[C@H](CC(C)C)NC(=O)[C@H](CC(C)C)NC(=O)[C@H](CCCCN)NC(=O)[C@H](CCCCN)NC(=O)[C@H](CC(C)C)NC(=O)[C@H](CC(C)C)NC(=O)[C@H](CCCCN)NC(=O)[C@H](C)NC(=O)[C@H](CC(C)C)NC(=O)[C@H](CCCCN)NC(=O)[C@H](CCCCN)NC(=O)[C@@H](N)CC(C)C)C(=O)N[C@@H](C)C(=O)NCC(=O)O : 10

# evaluate next
Which MIC value belongs to CC[C@H](C)[C@H](NC(=O)[C@H](CCCN=C(N)N)NC(=O)[C@H](CCC(N)=O)NC(=O)[C@@H](NC(=O)[C@@H](NC(=O)[C@H](CCCN=C(N)N)NC(=O)[C@@H](N)CCCCN)[C@@H](C)CC)C(C)C)C(=O)N[C@@H](C)C(=O)N[C@@H](CC(=O)O)C(=O)N[C@@H](Cc1ccccc1)C(=O)N[C@@H](CC(C)C)C(=O)N[C@@H](CCCN=C(N)N)C(=O)O ?
40

---

Record: MIC reported on Staphylococcus epidermidis KCTC 1917.
Numbers only, in µM.

CC(C)C[C@H](NC(=O)[C@H](Cc1ccccc1)NC(=O)CNC(=O)[C@H](Cc1c[nH]c2ccccc12)NC(=O)[C@H](Cc1c[nH]c2ccccc12)NC(=O)[C@H](Cc1c[nH]c2ccccc12)NC(=O)CNC(=O)[C@H](Cc1ccccc1)NC(=O)[C@H](CCCN=C(N)N)NC(=O)[C@H](CCCN=C(N)N)NC(=O)[C@@H](N)C(C)C)C(=O)N[C@@H](CCCN=C(N)N)C(=O)N[C@@H](CCCN=C(N)N)C(=O)O : 4.39

Record request: MIC value, item CC(C)C[C@H](NC(=O)[C@H](CCCCN)NC(=O)[C@H](CCCCN)NC(=O)[C@H](Cc1ccccc1)NC(=O)[C@H](CC(C)C)NC(=O)[C@H](CCCCN)NC(=O)[C@H](CCCCN)NC(=O)[C@H](Cc1ccccc1)NC(=O)[C@H](CCCCN)NC(=O)[C@H](CCCCN)NC(=O)[C@H](CCCN=C(N)N)NC(=O)[C@H](Cc1ccccc1)NC(=O)[C@H](CCCN=C(N)N)NC(=O)[C@H](CCCCN)NC(=O)[C@H](Cc1ccccc1)NC(=O)[C@H](CCCN=C(N)N)NC(=O)CN)C(=O)N[C@@H](CO)C(N)=O
4
